# System: HeLa Kyoto;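 further: synchronized HeLa Kyoto cells (double thymidine block for G1/S, nocodazole release for mitosis), protein amounts in NP-40 versus SDS lysates quantified by mass spectrometry, three biological replicates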
# PROCEDURE TEXT: solubility change mitosis vs G1/S (difference of NP-40 vs SDS log2 ratios) (log2 ratio difference); higher = more soluble in mitosis
Measured solubility change mitosis (log2), listed per entry for reference.
// return a plain number; no unit text

stdin: Give the reported solubility change mitosis (log2) for this sequence. MSSASGLRRGHPAGGEENMTETDAFYKREMFDPAEKYKMDHRRRGIALIFNHERFFWHLTLPERRGTCADRDNLTRRFSDLGFEVKCFNDLKAEELLLKIHEVSTVSHADADCFVCVFLSHGEGNHIYAYDAKIEIQTLTGLFKGDKCHSLVGKPKIFIIQACRGNQHDVPVIPLDVVDNQTEKLDTNITEVDAASVYTLPAGADFLMCYSVAEGYYSHRETVNGSWYIQDLCEMLGKYGSSLEFTELLTLVNRKVSQRRVDFCKDPSAIGKKQVPCFASMLTKKLHFFPKSN [CASP6]
stdout: -0.176

stdin: Give the reported solubility change mitosis (log2) for this sequence. MESGAYGAAKAGGSFDLRRFLTQPQVVARAVCLVFALIVFSCIYGEGYSNAHESKQMYCVFNRNEDACRYGSAIGVLAFLASAFFLVVDAYFPQISNATDRKYLVIGDLLFSALWTFLWFVGFCFLTNQWAVTNPKDVLVGADSVRAAITFSFFSIFSWGVLASLAYQRYKAGVDDFIQNYVDPTPDPNTAYASYPGASVDNYQQPPFTQNAETTEGYQPPPVY [SYNGR2]
stdout: -0.171

stdin: Give the reported solubility change mitosis (log2) for this sequence. MSPARRCRGMRAAVAASVGLSEGPAGSRSGRLFRPPSPAPAAPGARLLRLPGSGAVQAASPERAGWTEALRAAVAELRAGAVVAVPTDTLYGLACAASCSAALRAVYRLKGRSEAKPLAVCLGRVADVYRYCRVRVPEGLLKDLLPGPVTLVMERSEELNKDLNPFTPLVGIRIPDHAFMQDLAQMFEGPLALTSANLSSQASSLNVEEFQDLWPQLSLVIDGGQIGDGQSPECRLGSTVVDLSVPGKFGIIRPGCALESTTAILQQKYGLLPSHASYL [YRDC]
stdout: -0.0312
